Target: T1, CD123 (Homo sapiens (Human), UniProt P26951 19-305, limits assumed)
T1 construct: The CD123 construct used in the ELISA is not described; also called CD123-Signal
T1 sequence: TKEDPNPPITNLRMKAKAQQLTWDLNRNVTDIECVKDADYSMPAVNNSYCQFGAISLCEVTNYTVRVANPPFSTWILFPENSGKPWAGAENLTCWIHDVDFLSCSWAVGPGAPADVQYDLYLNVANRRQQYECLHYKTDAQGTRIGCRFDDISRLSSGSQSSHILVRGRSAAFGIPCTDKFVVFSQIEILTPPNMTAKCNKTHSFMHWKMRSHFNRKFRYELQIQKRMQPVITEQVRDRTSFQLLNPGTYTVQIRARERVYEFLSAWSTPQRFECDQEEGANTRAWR
Experiment: ELISA
Parameters: unit not given here

- BINDER: "D domain of SEQ ID NO: 622 (designed binder) MGSWEEFEDRLFAIDSRLWALGGSEAELAEFENIIASFEEVLQEYKGKGNPEVEALSVEAFAIDRELGAYRHN"
  ELISA_avg: 3.7
- BINDER: "D domain of SEQ ID NO: 398 (designed binder) MGSWHEFDQRLWAIEERLWALGGSEAELAAFEKEIAAFESELQAYKGKGNPEVETLRLYAALIRHDLQAYRHN"
  ELISA_avg: 3.3
- BINDER: "D domain of SEQ ID NO: 360 (designed binder) MGSWTEFVWRLEAIWDRLDALGGSEAELAAFEKEIAAFESELQAYKGKGNPEVEVLREDAAVIRHFLQAYRHN"
  ELISA_avg: 3.6
- BINDER: "D domain of SEQ ID NO: 605 (designed binder) MGSWAEFDSRLIAIFDRLWALGGSEAELAWFEDDIAQFEQHLQAYKGKGNPEVEALRQEADAITFELKAYRHN"
  ELISA_avg: 3.6
- BINDER: "D domain of SEQ ID NO: 576 (designed binder) MGSWEEFDVRLDAIFNRLWALGGSEAELAEFEFDIAWFEMDLQEYKGKGNPEVEALFDEAEAITNELVAYRHN"
  ELISA_avg: 4.7
